- study conditions: in toluene, 298.89 K
property name: solubility (mole fraction)

> print(dat)
                structure               property.name  observed.result
1  c1ccc2c(c1)Cc1ccccc1-2  solubility (mole fraction)             0.13

* * *

- study conditions: in n-butanol, 308.28 K
property name: solubility (mole fraction)

> print(dat)
                structure               property.name  observed.result
1  c1ccc2c(c1)Cc1ccccc1-2  solubility (mole fraction)           0.0168

* * *

- study conditions: in n-butanol, 313.93 K
property name: solubility (mole fraction)

> print(dat)
                structure  observed.result
1  c1ccc2c(c1)Cc1ccccc1-2           0.0212
